# Tested on: 885724-159-R-J1-PDC complex spheroid viability;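 note: spheroids exposed to agents for seven days before readout; percent of vehicle control viability where 100% = DMSO wells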
# PROTOCOL_TEXT: Anticancer human tumor 885724-159-R-J1-PDC patient-derived pancreatic adenocarcinoma cell line growth inhibition [GQUAD]
# ASSAY_SETUP: second compound 10 µM; first compound 0.1 µM; hits give low values
MEASURE: viability, T/C (%)

>  <COMPOUND>
Nc1ccn(C2OC(CO)C(O)C2(F)F)c(=O)n1 (stereo not drawn) + Cc1cnc(CNC(=O)c2c(=O)c3ccc(N4CCCN(C)CC4)nc3n3c2sc2ccccc23)cn1

>  <VALUE_OBSERVED>
75.1

$$$$
>  <COMPOUND>
C=CCn1c(=O)c2cnc(Nc3ccc(N4CCN(C)CC4)cc3)nc2n1-c1cccc(C(C)(C)O)n1 + Cc1[nH]c2ccc(F)cc2c1-c1nc2c3cccnc3c3ncccc3c2[nH]1

>  <VALUE_OBSERVED>
58.5

$$$$
>  <COMPOUND>
O=C(NO)c1cnc(N2CCN(S(=O)(=O)c3ccc4ccccc4c3)CC2)nc1 + Cc1[nH]c2ccc(F)cc2c1-c1nc2c3cccnc3c3ncccc3c2[nH]1

>  <VALUE_OBSERVED>
65.6

$$$$
